# Assay System: PIK3CA (human)
Parameter Measured: IC50

Sample answers from the record:
Cc1cccnc1-n1c(Cn2nc(Cl)c3c(N)ncnc32)cc2cccc(C)c2c1=O ... > 10 µM
CC(=O)c1nn(Cc2cc3cccc(C)c3c(=O)n2-c2ccccc2)c2ncnc(N)c12 ... > 10 µM
CCC(Nc1ncnc2[nH]cnc12)c1cc2cccc(C)c2c(=O)n1C1CCC1 (stereo not given) ... > 10 µM
Cc1cccc2cc(C(C)Nc3nc(N)nc4[nH]cnc34)n(-c3ccccc3)c(=O)c12 (stereo not given) ... 0.1 to 1 µM

Now, please, on to the next compound.
# input Look up and report measured IC50 (PIK3CA (human)) for the following compound: CCC(Nc1ncnc2[nH]cnc12)c1cc2cccc(C)c2c(=O)n1C1CCN(C)CC1 (stereo not given)
# output > 10 µM

====

Measured pIC50 on PIK3CD (Human) (UniProt O00329) follows.
Sequence (O00329 whole entry, looked up): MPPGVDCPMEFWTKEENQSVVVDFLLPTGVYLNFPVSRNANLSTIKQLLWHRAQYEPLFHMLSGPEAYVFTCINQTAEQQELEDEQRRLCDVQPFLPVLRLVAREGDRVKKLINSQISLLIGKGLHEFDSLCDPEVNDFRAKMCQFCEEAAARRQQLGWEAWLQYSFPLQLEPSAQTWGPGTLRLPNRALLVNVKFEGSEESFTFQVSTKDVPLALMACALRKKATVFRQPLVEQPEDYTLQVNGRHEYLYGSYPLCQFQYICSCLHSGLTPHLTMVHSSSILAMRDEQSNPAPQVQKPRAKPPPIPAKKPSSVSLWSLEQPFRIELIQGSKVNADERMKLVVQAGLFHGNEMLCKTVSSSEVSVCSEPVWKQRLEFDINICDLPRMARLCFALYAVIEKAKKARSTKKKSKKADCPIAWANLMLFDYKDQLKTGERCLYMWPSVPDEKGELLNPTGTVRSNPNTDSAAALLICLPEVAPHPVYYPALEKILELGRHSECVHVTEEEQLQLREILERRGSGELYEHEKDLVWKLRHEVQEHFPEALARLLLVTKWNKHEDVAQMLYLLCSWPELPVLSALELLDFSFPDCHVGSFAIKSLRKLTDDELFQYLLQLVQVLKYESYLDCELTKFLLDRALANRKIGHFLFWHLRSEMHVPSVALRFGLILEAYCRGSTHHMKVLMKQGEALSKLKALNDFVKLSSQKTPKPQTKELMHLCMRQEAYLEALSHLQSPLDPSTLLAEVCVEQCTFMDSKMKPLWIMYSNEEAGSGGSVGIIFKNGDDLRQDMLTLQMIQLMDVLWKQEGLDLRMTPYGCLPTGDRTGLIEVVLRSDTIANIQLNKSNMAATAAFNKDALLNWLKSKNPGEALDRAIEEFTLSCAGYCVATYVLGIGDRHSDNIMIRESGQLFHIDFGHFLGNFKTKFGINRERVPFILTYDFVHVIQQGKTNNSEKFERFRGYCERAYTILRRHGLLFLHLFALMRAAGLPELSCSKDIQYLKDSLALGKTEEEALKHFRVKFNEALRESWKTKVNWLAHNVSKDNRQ
pIC50: −log10 of the molar value.

CC(=O)Nc1nc2ccc(-c3nn(Cc4cc5cccc(C)c5c(=O)n4-c4ccccc4C)c4ncnc(N)c34)cc2o1 ... > 7.00
Cc1cccc2cc(C(C)Nc3nc(Cl)ncc3N)n(-c3ccccc3)c(=O)c12 (centres undefined) ... < 5.00
Cc1cccc2cc([C@H](C)Nc3nc(F)nc4[nH]cnc34)n(C3CC3)c(=O)c12 ... > 7.00

# input Look up and report measured pIC50 (PIK3CD (Human) (UniProt O00329)) for the following molecule: Cc1cccc2cc(C(C)Nc3ncnc4[nH]cnc34)n(C3CCOCC3)c(=O)c12 (centres undefined)
# output > 7.00

# input Look up and report measured pIC50 (PIK3CD (Human) (UniProt O00329)) for the following molecule: Cc1cccc2cc(C(C)Nc3ncnc4[nH]cnc34)n(C(C)C)c(=O)c12 (centres undefined)
# output > 7.00

# input Look up and report measured pIC50 (PIK3CD (Human) (UniProt O00329)) for the following molecule: "COc1ccc(-c2nn(Cc3cc4cccc(C)c4c(=O)n3-c3ccccc3C)c3ncnc(N)c23)cc1"
# output 6.00 to 7.00

====

Measured IC50 on PIK3CB (Human) follows.

Sample answers from the record:
Cc1cccc2cc(Cn3nc(-c4ccc(F)c(O)c4)c4c(N)ncnc43)n(C3CCCC3)c(=O)c12 ... > 10 µM
Cc1cccc2cc([C@H](C)Nc3ncnc4[nH]ccc34)n(C3CC3)c(=O)c12 ... < 0.1 µM
Cc1cccnc1-n1c(Cn2nc(-c3cccc(O)c3)c3c(N)ncnc32)cc2cccc(C)c2c1=O ... > 10 µM
CCC(Nc1ncnc2[nH]cnc12)c1cc2cccc(C)c2c(=O)n1-c1cc(F)cc(F)c1 (centres undefined) ... > 10 µM
Cc1cccc2cc(Cn3nc(CF)c4c(N)ncnc43)n(-c3ccccc3)c(=O)c12 ... > 10 µM

# input Look up and report measured IC50 (PIK3CB (Human)) for the following molecule: "Cc1cccc2cc(Cn3nc(-c4cccc(O)c4)c4c(N)ncnc43)n(-c3ccccc3)c(=O)c12"
# output > 10 µM

# input Look up and report measured IC50 (PIK3CB (Human)) for the following molecule: "Cc1cccnc1-n1c(Cn2nc(C#C[C@@H](C)O)c3c(N)ncnc32)cc2cccc(C)c2c1=O"
# output > 10 µM

# input Look up and report measured IC50 (PIK3CB (Human)) for the following molecule: "Cc1cccc2cc(Cn3nc(C#C[C@@H](C)O)c4c(N)ncnc43)n(C3CCCCC3)c(=O)c12"
# output > 10 µM

# input Look up and report measured IC50 (PIK3CB (Human)) for the following molecule: "Cc1cccc2cc(Cn3nc(-c4cc(O)cc(F)c4)c4c(N)ncnc43)n(C(C)C)c(=O)c12"
# output 0.1 to 1 µM

====

Measured pIC50 on PIK3CD (Human) (UniProt O00329) follows.
pIC50: −log10 of the molar value.

# input Look up and report measured pIC50 (PIK3CD (Human) (UniProt O00329)) for the following molecule: "Cc1cccc2cc([C@H](C)NC3CCOCC3)n(-c3ccccc3)c(=O)c12"
# output < 5.00

# input Look up and report measured pIC50 (PIK3CD (Human) (UniProt O00329)) for the following molecule: "Cc1ccccc1-n1c(Cn2nc(CCC(N)=O)c3c(N)ncnc32)cc2cccc(C)c2c1=O"
# output 6.00 to 7.00

# input Look up and report measured pIC50 (PIK3CD (Human) (UniProt O00329)) for the following molecule: "COC(=O)c1nn(Cc2cc3cccc(C)c3c(=O)n2-c2ccccc2C)c2ncnc(N)c12"
# output 6.00 to 7.00

# input Look up and report measured pIC50 (PIK3CD (Human) (UniProt O00329)) for the following molecule: Cc1cccc2cc(C(C)Nc3ncnc4[nH]cnc34)n(CCN3CCOCC3)c(=O)c12 (centres undefined)
# output > 7.00

====

Measured IC50 on PIK3CA (human) follows.

Sample answers from the record:
Cc1ccccc1-n1c(Cn2nc(-c3ccc(F)c(O)c3)c3c(N)ncnc32)cc2ccccc2c1=O ... > 10 µM
Cc1cccc2cc([C@H](C)Nc3ncnc4[nH]cc(C(N)=O)c34)n(-c3ccccc3)c(=O)c12 ... 0.1 to 1 µM
COc1ccccc1-n1c(Cn2nc(I)c3c(N)ncnc32)cc2cccc(C)c2c1=O ... > 10 µM
Cc1cccc2cc(Cn3nc(-c4cnn(C)c4)c4c(N)ncnc43)n(-c3ccccc3F)c(=O)c12 ... > 10 µM

# input Supply recorded IC50 for "Cc1ccccc1-n1c(Cn2nc(-c3ccc4nc(N)ccc4c3)c3c(N)ncnc32)cc2cccc(C)c2c1=O" here.
# output 0.1 to 1 µM

====

Known IC50 of a selection of compounds
# Assay System: PIK3CB (Human) (UniProt P42338)
# Sequence (P42338 whole entry, looked up): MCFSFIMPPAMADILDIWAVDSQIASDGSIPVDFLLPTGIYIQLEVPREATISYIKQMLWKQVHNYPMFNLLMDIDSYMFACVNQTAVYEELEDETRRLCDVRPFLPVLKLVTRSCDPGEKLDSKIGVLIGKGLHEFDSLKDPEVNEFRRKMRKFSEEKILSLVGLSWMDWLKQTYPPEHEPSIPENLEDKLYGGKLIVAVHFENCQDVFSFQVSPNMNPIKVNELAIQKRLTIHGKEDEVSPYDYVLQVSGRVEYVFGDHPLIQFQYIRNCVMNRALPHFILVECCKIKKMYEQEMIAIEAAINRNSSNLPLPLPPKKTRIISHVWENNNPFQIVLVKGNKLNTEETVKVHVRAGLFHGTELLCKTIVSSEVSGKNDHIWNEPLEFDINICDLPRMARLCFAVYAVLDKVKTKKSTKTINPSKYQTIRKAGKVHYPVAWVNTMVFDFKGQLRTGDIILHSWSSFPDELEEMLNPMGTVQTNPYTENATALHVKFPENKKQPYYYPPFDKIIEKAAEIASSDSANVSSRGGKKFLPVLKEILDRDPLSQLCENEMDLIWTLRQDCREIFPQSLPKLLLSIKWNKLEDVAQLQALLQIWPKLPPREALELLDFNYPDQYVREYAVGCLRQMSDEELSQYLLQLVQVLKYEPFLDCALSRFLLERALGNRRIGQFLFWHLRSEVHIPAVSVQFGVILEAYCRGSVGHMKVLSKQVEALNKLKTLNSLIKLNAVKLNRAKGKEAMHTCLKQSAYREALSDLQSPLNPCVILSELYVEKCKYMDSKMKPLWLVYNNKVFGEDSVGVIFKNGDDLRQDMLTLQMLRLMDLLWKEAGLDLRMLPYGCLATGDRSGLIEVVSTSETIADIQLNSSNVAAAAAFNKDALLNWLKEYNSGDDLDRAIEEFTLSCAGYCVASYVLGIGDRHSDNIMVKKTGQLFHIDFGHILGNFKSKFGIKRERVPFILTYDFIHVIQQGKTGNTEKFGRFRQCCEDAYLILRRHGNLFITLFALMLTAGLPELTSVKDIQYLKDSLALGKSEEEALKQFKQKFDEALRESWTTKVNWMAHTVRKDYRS

Sample answers from the record:
Cc1cccc2cc([C@H](C)Nc3ncnc4[nH]cc(Br)c34)n(C3CC3)c(=O)c12 ... < 0.1 µM
Cc1ccccc1-n1c(Cn2nc(-c3ccc(Cl)c(O)c3)c3c(N)ncnc32)cc2ccccc2c1=O ... > 10 µM
Cc1ccccc1-n1c(Cn2nc(-c3ccc4ncnc(N)c4c3)c3c(N)ncnc32)cc2cccc(C)c2c1=O ... > 10 µM
Cc1cccc2cc(Cn3nc(C#C[C@@H](C)O)c4c(N)ncnc43)n(-c3ccccc3Cl)c(=O)c12 ... > 10 µM
C=Cc1nn(Cc2cc3cccc(C)c3c(=O)n2-c2ccccc2C)c2ncnc(N)c12 ... > 10 µM

# input Supply recorded IC50 for "Cc1cccc2cc([C@H](C)Nc3ncnc4[nH]cc(C#N)c34)n(-c3ccccc3)c(=O)c12" here.
# output < 0.1 µM

# input Supply recorded IC50 for "Cc1ccccc1-n1c(Cn2nc(-c3ccn[nH]3)c3c(N)ncnc32)cc2cccc(C)c2c1=O" here.
# output > 10 µM

# input Supply recorded IC50 for "Cc1cccc2cc([C@H](C)Nc3ncnc4[nH]cc(C(N)=O)c34)n(-c3ccccc3)c(=O)c12" here.
# output < 0.1 µM

# input Supply recorded IC50 for "Cc1ccccc1-n1c(Cn2nc(-c3cccc(Cl)c3)c3c(N)ncnc32)cc2cccc(C)c2c1=O" here.
# output > 10 µM

====

Measured pIC50 on PIK3CB (Human) follows.
pIC50: −log10 of the molar value.

Cc1ccccc1-n1c(Cn2nc(C#C[C@@H](C)O)c3c(N)ncnc32)cc2cccc(F)c2c1=O ... < 5.00

# input Look up and report measured pIC50 (PIK3CB (Human)) for the following compound: "Cc1ccccc1-n1c(Cn2nc(C#N)c3c(N)ncnc32)cc2cccc(C)c2c1=O"
# output < 5.00

# input Look up and report measured pIC50 (PIK3CB (Human)) for the following compound: "Cc1cccc2cc(Cn3nc(-c4cc(O)cc(F)c4)c4c(N)ncnc43)n(-c3ccccc3C(C)C)c(=O)c12"
# output 6.00 to 7.00

# input Look up and report measured pIC50 (PIK3CB (Human)) for the following compound: "CCn1c(Cn2nc(-c3ccc4nc(NC(C)=O)sc4c3)c3c(N)ncnc32)cc2cccc(C)c2c1=O"
# output 6.00 to 7.00

====

Measured IC50 on PIK3CD (Human) (UniProt O00329) follows.

Cc1cccc2cc(Cn3nc(I)c4c(N)ncnc43)n(C3CCCCC3)c(=O)c12 ... 100 to 1000 nM
Cc1ccccc1-n1c(Cn2nc(C#C[C@H](C)O)c3c(N)ncnc32)cc2cccc(C)c2c1=O ... 100 to 1000 nM
Cc1cccc2cc([C@H](C)Nc3nc(Cl)nc4[nH]cnc34)n(C3CC3)c(=O)c12 ... < 100 nM
CC(=O)c1nn(Cc2cc3cccc(C)c3c(=O)n2-c2ccccc2)c2ncnc(N)c12 ... 100 to 1000 nM

# input Look up and report measured IC50 (PIK3CD (Human) (UniProt O00329)) for the following compound: "COc1ccc(-c2nn(Cc3cc4cccc(C)c4c(=O)n3-c3ccccc3F)c3ncnc(N)c23)cc1OC"
# output 100 to 1000 nM

# input Look up and report measured IC50 (PIK3CD (Human) (UniProt O00329)) for the following compound: "Cc1cccnc1-n1c(Cn2nc(-c3cccc(O)c3)c3c(N)ncnc32)cc2ccccc2c1=O"
# output 100 to 1000 nM

# input Look up and report measured IC50 (PIK3CD (Human) (UniProt O00329)) for the following compound: "CNC(=O)c1nn(Cc2cc3cccc(C)c3c(=O)n2-c2ccccc2)c2ncnc(N)c12"
# output 100 to 1000 nM

# input Look up and report measured IC50 (PIK3CD (Human) (UniProt O00329)) for the following compound: "C=C(C)c1nn(Cc2cc3cccc(C)c3c(=O)n2-c2ccccc2)c2ncnc(N)c12"
# output < 100 nM

# input Look up and report measured IC50 (PIK3CD (Human) (UniProt O00329)) for the following compound: "Cc1cccc2cc([C@H](C)Nc3ncnc4[nH]cc(C#N)c34)n(C3CC3)c(=O)c12"
# output < 100 nM
